- Measurement Protocol: logP
- Particulars: HCOOH (formic acid)
Criterion: chromatographic logP meeting or surpassing 2. Met: 1.0. Not met: 0.0.

> print(dat)
                                   compound  assigned.category
1  Cc1ccc(-c2cnc(C(C)(F)CNC(=O)c3cccnc3C(F)(F)F)c(Cl)c2)cn1 (centres unmarked)                0.0
2  O=C(NCC(F)(F)c1ncc(-c2ccc(F)cn2)cc1Cl)c1nccnc1C(F)(F)F                1.0
3  CC(F)(CNC(=O)c1cccnc1C(F)(F)F)c1ncc(-c2cncc(F)c2)cc1Cl (centres unmarked)                1.0
4  CC(F)(CNC(=O)c1ccccc1C(F)(F)F)c1ncc(-c2ccc(Cl)nc2)cc1Cl (centres unmarked)                1.0
